EXPERIMENT: Phase 1 FIH study: plasma pharmacokinetics (LC-MS/MS)
Assay type: in vivo
CONDITION_DETAILS: female, plasma; human, RE104 dose 38 mg SC (n = 6)
Protocol: The study was a double-blind, randomized, placebo-controlled Phase 1 single ascending dose study in up to 6 cohorts in healthy females. Eligibility was assessed during a screening period of up to 28 days prior to enrollment. For the treatment period, subjects were admitted to the clinical research unit (CRU) one day prior to the dosing (Day −1). […] The concentrations of RE104 and isoprocin in plasma were determined using a validated Liquid chromatography tandem mass spectrometry (LC-MS/MS) assay.
MEASURED_QUANTITY: Cmax (ng/mL)
Quick note: give the figure in ng/mL, leave out the unit.

INSERT INTO measurements (compound, output_unit, assay_result) VALUES
  ('CC(C)N(CCc1c[nH]c2cccc(O)c12)C(C)C [4-OH-DiPT]', 'ng/mL', 124);

For the next question, use this compound.
Lab note: CC(C)N(CCc1c[nH]c2cccc(OC(=O)CCCC(=O)O)c12)C(C)C [RE104] gave Cmax of 1250

* * *

Cmax by entry:
EXPERIMENT: Phase 1 FIH study: plasma pharmacokinetics (LC-MS/MS)
Type: in vivo
CONDITION_DETAILS: female, plasma; human, RE104 dose 22 mg SC (n = 6)
Quick note: give the figure in ng/mL, leave out the unit.

INSERT INTO assay_data (chemical_string, assay_result) VALUES
  ('CC(C)N(CCc1c[nH]c2cccc(O)c12)C(C)C', 77);

Lab note: CC(C)N(CCc1c[nH]c2cccc(OC(=O)CCCC(=O)O)c12)C(C)C gave Cmax of 788

* * *

EXPERIMENT: in vivo
CONDITION_DETAILS: male, beagle, dog, plasma, sc, 1 mg/kg
MEASURED_QUANTITY: AUC(0-t)
Mention the unit after the number when you answer.

Lab note: CC(C)N(CCc1c[nH]c2cccc(OC(=O)CCCC(=O)O)c12)C(C)C gave AUC(0-t) of 658 ng·h/mL

* * *

EXPERIMENT: Non-GLP single dose, dose range study in rats (MTD)
CONDITION_DETAILS: rat, in vivo, sc, formulated in PBS
MEASURED_QUANTITY: MTD at 14 days (mg/kg)
Quick note: give the figure in mg/kg, leave out the unit.

Lab note: CC(C)N(CCc1c[nH]c2cccc(OC(=O)CCCC(=O)O)c12)C(C)C gave MTD at 14 days of 75

* * *

EXPERIMENT: GLP 14-day extended single SC dose toxicity study in dogs
CONDITION_DETAILS: beagle, dog, plasma, sc, 8 mg/kg
MEASURED_QUANTITY: Cmax
Mention the unit after the number when you answer.

INSERT INTO assay_data (chemical_string, assay_result) VALUES
  ('CC(C)N(CCc1c[nH]c2cccc(O)c12)C(C)C', '360 ng/mL');

For the next question, use this compound.
Lab note: CC(C)N(CCc1c[nH]c2cccc(OC(=O)CCCC(=O)O)c12)C(C)C gave Cmax of 3300 ng/mL

* * *

EXPERIMENT: Phase 1 FIH study: plasma pharmacokinetics (LC-MS/MS)
Assay type: in vivo
CONDITION_DETAILS: female, plasma; human, RE104 dose 33 mg SC (n = 9)
MEASURED_QUANTITY: Cmax (ng/mL)
Quick note: give the figure in ng/mL, leave out the unit.

INSERT INTO assay_data (molecule, assay_result) VALUES
  ('CC(C)N(CCc1c[nH]c2cccc(OC(=O)CCCC(=O)O)c12)C(C)C [RE104]', 1460);

For the next question, use this molecule.
Lab note: CC(C)N(CCc1c[nH]c2cccc(O)c12)C(C)C [4-OH-DiPT] gave Cmax of 137

* * *

TARGET_ENTITY: human recombinant 5-HT2B receptors (Homo sapiens)
Sequence (P41595 whole entry): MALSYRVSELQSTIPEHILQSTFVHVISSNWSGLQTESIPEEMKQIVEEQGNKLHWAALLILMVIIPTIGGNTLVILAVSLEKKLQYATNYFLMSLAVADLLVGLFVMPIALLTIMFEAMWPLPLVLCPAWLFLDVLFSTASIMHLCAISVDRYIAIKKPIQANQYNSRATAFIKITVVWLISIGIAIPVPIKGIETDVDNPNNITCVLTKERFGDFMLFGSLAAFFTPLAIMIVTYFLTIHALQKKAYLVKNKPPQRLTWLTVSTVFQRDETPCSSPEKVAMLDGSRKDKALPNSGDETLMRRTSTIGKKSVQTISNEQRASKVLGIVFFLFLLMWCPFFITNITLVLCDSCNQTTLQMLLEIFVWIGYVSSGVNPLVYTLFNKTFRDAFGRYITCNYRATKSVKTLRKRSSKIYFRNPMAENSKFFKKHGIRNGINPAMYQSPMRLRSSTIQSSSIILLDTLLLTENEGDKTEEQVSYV
EXPERIMENT: 5-HT2B agonist radioligand binding assay ([125I]DOI)
pIC50 by entry:
// field semantics: pIC50 = negative decimal log of concentration (mol/L)

INSERT INTO measurements (chemical_string, target_entity, assay_result) VALUES
  ('CC(C)N(CCc1c[nH]c2cccc(OC(=O)CCCC(=O)O)c12)C(C)C', 'human recombinant 5-HT2B receptors (Homo sapiens)', 6.13);

For the next question, use this molecule.
Lab note: CC(C)N(CCc1c[nH]c2cccc(O)c12)C(C)C gave pIC50 of 7.38

* * *

Tmax by entry:
EXPERIMENT: Phase 1 FIH study: plasma pharmacokinetics (LC-MS/MS)
Assay type: in vivo
CONDITION_DETAILS: female, plasma; human, RE104 dose 33 mg SC (n = 9)
Quick note: give the figure in min, leave out the unit.

INSERT INTO assay_data (compound, output_unit, assay_result) VALUES
  ('CC(C)N(CCc1c[nH]c2cccc(O)c12)C(C)C [4-OH-DiPT]', 'min', 64.2);

For the next question, use this compound.
Lab note: CC(C)N(CCc1c[nH]c2cccc(OC(=O)CCCC(=O)O)c12)C(C)C [RE104] gave Tmax of 15

* * *

Tmax by entry:
EXPERIMENT: Phase 1 FIH study: plasma pharmacokinetics (LC-MS/MS)
Type: in vivo
CONDITION_DETAILS: female, plasma; human, RE104 dose 38 mg SC (n = 6)
Quick note: give the figure in min, leave out the unit.

INSERT INTO measurements (chemical_string, assay_result) VALUES
  ('CC(C)N(CCc1c[nH]c2cccc(O)c12)C(C)C', 64.8);

Lab note: CC(C)N(CCc1c[nH]c2cccc(OC(=O)CCCC(=O)O)c12)C(C)C gave Tmax of 22.8

* * *

EXPERIMENT: GLP 14-day extended single SC dose toxicity study in rats
CONDITION_DETAILS: both, Sprague Dawley, rat, in vivo, sc
MEASURED_QUANTITY: NOAEL at 14 days (mg/kg)
Quick note: give the figure in mg/kg, leave out the unit.

Lab note: CC(C)N(CCc1c[nH]c2cccc(OC(=O)CCCC(=O)O)c12)C(C)C gave NOAEL at 14 days of 10

* * *

half-life by entry:
EXPERIMENT: Phase 1 FIH study: plasma pharmacokinetics (LC-MS/MS)
Type: in vivo
CONDITION_DETAILS: female, plasma; human, RE104 dose 5.5 mg SC (n = 6); read-out: t1/2, mean (converted)
Quick note: give the figure in h, leave out the unit.

INSERT INTO results (chemical_string, output_unit, assay_result) VALUES
  ('CC(C)N(CCc1c[nH]c2cccc(O)c12)C(C)C', 'h', 3.42);

For the next question, use this molecule.
Lab note: CC(C)N(CCc1c[nH]c2cccc(OC(=O)CCCC(=O)O)c12)C(C)C gave half-life of 0.53

* * *

Tmax by entry:
EXPERIMENT: Phase 1 FIH study: plasma pharmacokinetics (LC-MS/MS)
Type: in vivo
CONDITION_DETAILS: female, plasma; human, RE104 dose 22 mg SC (n = 6)

INSERT INTO measurements (chemical_string, measured_quantity, assay_result) VALUES
  ('CC(C)N(CCc1c[nH]c2cccc(O)c12)C(C)C', 'Tmax', '85.2 min');

For the next question, use this compound.
Lab note: CC(C)N(CCc1c[nH]c2cccc(OC(=O)CCCC(=O)O)c12)C(C)C gave Tmax of 22.8 min

* * *

EXPERIMENT: Phase 1 FIH study: plasma pharmacokinetics (LC-MS/MS)
Type: in vivo
CONDITION_DETAILS: female, plasma; human, RE104 dose 44 mg SC (n = 3)
Procedure: The study was a double-blind, randomized, placebo-controlled Phase 1 single ascending dose study in up to 6 cohorts in healthy females. Eligibility was assessed during a screening period of up to 28 days prior to enrollment. For the treatment period, subjects were admitted to the clinical research unit (CRU) one day prior to the dosing (Day −1). […] The concentrations of RE104 and isoprocin in plasma were determined using a validated Liquid chromatography tandem mass spectrometry (LC-MS/MS) assay.
Tmax by entry:
Quick note: give the figure in min, leave out the unit.

INSERT INTO results (chemical_string, assay_result) VALUES
  ('CC(C)N(CCc1c[nH]c2cccc(O)c12)C(C)C', 75);

For the next question, use this compound.
Lab note: CC(C)N(CCc1c[nH]c2cccc(OC(=O)CCCC(=O)O)c12)C(C)C gave Tmax of 25.2

* * *

EXPERIMENT: Non-GLP single dose, dose range study in rats (MTD)
CONDITION_DETAILS: rat, in vivo, sc, formulated in WFI
MEASURED_QUANTITY: MTD at 14 days (mg/kg)
Quick note: give the figure in mg/kg, leave out the unit.

Lab note: CC(C)N(CCc1c[nH]c2cccc(OC(=O)CCCC(=O)O)c12)C(C)C gave MTD at 14 days of 150

* * *

EXPERIMENT: in vivo
CONDITION_DETAILS: male, cynomolgus monkey, plasma, iv, 1 mg/kg
MEASURED_QUANTITY: half-life
Mention the unit after the number when you answer.

Lab note: CC(C)N(CCc1c[nH]c2cccc(O)c12)C(C)C [4-OH-DiPT] gave half-life of 37.9 min
